Biological target: Tyrosine-protein phosphatase non-receptor type substrate 1 (Homo sapiens) + Leukocyte surface antigen CD47 (Homo sapiens) (UniProt P78324+Q08722)
Sequence (P78324 whole entry, looked up): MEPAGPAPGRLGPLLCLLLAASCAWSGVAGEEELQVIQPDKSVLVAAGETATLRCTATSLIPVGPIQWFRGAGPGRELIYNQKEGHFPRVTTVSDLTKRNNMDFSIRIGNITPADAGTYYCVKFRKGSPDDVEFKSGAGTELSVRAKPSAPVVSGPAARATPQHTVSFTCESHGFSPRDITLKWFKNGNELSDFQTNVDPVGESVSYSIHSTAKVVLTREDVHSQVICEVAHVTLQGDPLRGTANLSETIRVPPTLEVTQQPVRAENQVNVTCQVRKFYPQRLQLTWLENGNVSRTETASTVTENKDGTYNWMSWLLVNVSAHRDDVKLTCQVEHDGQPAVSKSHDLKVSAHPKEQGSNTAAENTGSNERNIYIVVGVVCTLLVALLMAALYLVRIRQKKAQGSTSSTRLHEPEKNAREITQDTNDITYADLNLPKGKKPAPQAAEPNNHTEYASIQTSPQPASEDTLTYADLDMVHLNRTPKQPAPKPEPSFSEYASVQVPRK
Sequence (Q08722 whole entry, looked up): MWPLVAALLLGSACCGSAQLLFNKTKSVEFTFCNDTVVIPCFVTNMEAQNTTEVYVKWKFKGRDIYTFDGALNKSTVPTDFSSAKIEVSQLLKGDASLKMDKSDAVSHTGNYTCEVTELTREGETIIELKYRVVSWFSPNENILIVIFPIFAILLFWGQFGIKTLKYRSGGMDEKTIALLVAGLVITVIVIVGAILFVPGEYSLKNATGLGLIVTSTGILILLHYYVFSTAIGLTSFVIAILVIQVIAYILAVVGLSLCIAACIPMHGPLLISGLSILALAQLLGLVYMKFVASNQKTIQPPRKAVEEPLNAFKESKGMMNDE
Assay: CD47-SIRPalpha protein protein interaction - LANCE assay qHTS validation (AID 1347057); further: 0% is about no effect
Details: Recombinant CD47-His / biotin-SIRPalpha, TR-FRET ratio; series mostly up to 38.3 µM
Results filed as inconclusive are left out. Activity calls are given as the source filed them. The call rests on the fitted dose curve; in most records, active means well fitted curve in the direction sought with a large enough effect in the signal ratio, with a control signal flat (not every such curve was filed as active); inconclusive means small, poorly fitted or top-dose-only effect, or effect the other way, or a change in a side signal; inactive means no such curve, though single readings can be large or run the other way; the % refers to the signal ratio.
attribute_measured: outcome

>>> recorded_result("COC(=O)C1=CO[C@@H](O)[C@@H]2C(CO)=CC[C@H]12")
"inactive"
>>> recorded_result("COc1ccccc1N1CCN(CCN2C(=O)CC3(CCCC3)CC2=O)CC1")
"inactive"
>>> recorded_result("Cn1cnc2c(NCc3ccccc3)nc(NCCO)nc21")
"inactive"
>>> recorded_result("NC(N)=NCCCCN=C(N)N")
"inactive"
>>> recorded_result("CCN(CC)CCNC(=O)c1ccc(NS(C)(=O)=O)cc1")
"inactive"

**Query** Give the reported outcome for this compound. O=C1NC(c2cccc([N+](=O)[O-])c2)=CCN1c1ccccc1O
**Result** inactive

**Query** Give the reported outcome for this compound. Nc1ncnc2n[nH]c(Nc3ccc(F)cc3)c12
**Result** inactive

**Query** Give the reported outcome for this compound. O=C1NC(=O)/C(=C/c2ccc3c(c2)OC(F)(F)O3)S1
**Result** inactive

* * *

Assay: Primary qHTS for small molecule stabilizers of the endoplasmic reticulum resident proteome: Secreted ER Calcium Modulated Protein (SERCaMP) assay (AID 1508630); further: on the % scale 0 is the no-effect control and ±100 the full control effect
Details: SH-SY5Y GLuc-SERCaMP (Gaussia luciferase released on ER calcium loss) secretion, thapsigargin, luminescence; series mostly up to 38.4 µM
Inconclusive results are not listed. The source made the active and inactive calls. Calls come from the whole dose curve; as a rule, active = well fitted inhibition curve with a large enough effect; inconclusive = small, poorly fitted or top-dose-only effect; inactive = no such curve, though single readings can be large or run the other way.
attribute_measured: outcome

Sample answers from the record:
>>> recorded_result("COc1ccc(OC(=O)N(CC(=O)O)Cc2ccc(OCCc3nc(-c4ccccc4)oc3C)cc2)cc1")
"inactive"
>>> recorded_result("COC(=O)c1ccc(NC(C)=O)cc1OC")
"inactive"
>>> recorded_result("Nc1ccc2cc3ccc(N)cc3nc2c1")
"inactive"
>>> recorded_result("O=C(CCCCC(=O)Nc1c(I)cc(I)c(C(=O)O)c1I)Nc1c(I)cc(I)c(C(=O)O)c1I")
"inactive"
>>> recorded_result("O=C(Oc1ccccc1)c1ccccc1O")
"inactive"
>>> recorded_result("CC(NCCC(c1ccccc1)c1ccccc1)c1ccccc1 (stereo unspecified)")
"inactive"
>>> recorded_result("CCNC(=O)NCCCOc1cccc(CN2CCCCC2)c1")
"inactive"
>>> recorded_result("Cc1ncc(CO)c(CO)c1O")
"inactive"

**Query** Give the reported outcome for this compound. Cc1cc(=O)oc2cc(O[C@@H]3SC[C@@H](O)[C@H](O)[C@H]3O)ccc12
**Result** inactive

**Query** Give the reported outcome for this compound. CCN(CC)C(=O)C1CN2CCc3cc(OC)c(OC)cc3C2CC1OC(C)=O (stereo unspecified)
**Result** inactive

**Query** Give the reported outcome for this compound. O=C(O)[C@H](O)[C@@H](O)[C@H](O[C@@H]1O[C@H](CO)[C@H](O)[C@H](O)[C@H]1O)[C@H](O)CO
**Result** inactive

* * *

Experiment: qHTS of pediatric cancer cell lines to identify multiple opportunities for drug repurposing: Primary screen for LAN-5 cells (AID 1347100)
Details: LAN-5 neuroblastoma viability, CellTiter-Glo luminescence, 48 h; series mostly up to 46 µM
Inconclusive results are not listed. The source made the active and inactive calls. Calls follow the shape of the dose curve; as a rule, active = well fitted cell-killing curve with a large enough effect; inconclusive = small, poorly fitted or top-dose-only effect; inactive = no such curve, though single readings can be large or run the other way.
I would appreciate it if you answered using one of these outcomes: 1.0 for active, 0.0 for inactive

**Query** Returns: the outcome recorded for O=C(OCC(O)CO)c1ccccc1Nc1ccnc2c(C(F)(F)F)cccc12 (stereo unspecified) in this assay.
**Result** 0.0

**Query** Returns: the outcome recorded for CN(C)CCCOC1(Cc2ccccc2)CCCCCC1 in this assay.
**Result** 0.0

**Query** Returns: the outcome recorded for O=[N+]([O-])c1nccn1CO[C@@H](CO)[C@H](O)CO in this assay.
**Result** 0.0

**Query** Returns: the outcome recorded for COc1cc(C(=O)NC2CCCNC2)cc(OC)c1OC (stereo unspecified) in this assay.
**Result** 0.0

**Query** Returns: the outcome recorded for CC(NC(CCc1ccccc1)C(=O)O)C(=O)N1C(=O)N(C)CC1C(=O)O (stereo unspecified) in this assay.
**Result** 0.0

**Query** Returns: the outcome recorded for Oc1ccccc1 in this assay.
**Result** 0.0

**Query** Returns: the outcome recorded for CC(C)=CCNc1ncnc2c1ncn2[C@@H]1O[C@H](CO)[C@@H](O)[C@H]1O in this assay.
**Result** 1.0

**Query** Returns: the outcome recorded for O=C(O)c1ccccc1Nc1cc(Cl)ccc1C(=O)O in this assay.
**Result** 0.0

**Query** Returns: the outcome recorded for COc1ccc(OC(=O)N(CC(=O)O)Cc2ccc(OCCc3nc(-c4ccccc4)oc3C)cc2)cc1 in this assay.
**Result** 0.0

**Query** Returns: the outcome recorded for COCCc1ccccn1 in this assay.
**Result** 0.0

**Query** Returns: the outcome recorded for Nc1ccc([N+](=O)[O-])c(C(F)(F)F)c1 in this assay.
**Result** 0.0

**Query** Returns: the outcome recorded for Cc1cc(=O)oc2cc(O[C@@H]3SC[C@@H](O)[C@H](O)[C@H]3O)ccc12 in this assay.
**Result** 0.0

**Query** Returns: the outcome recorded for OC1(c2ccccc2)CCNCC1 in this assay.
**Result** 0.0

**Query** Returns: the outcome recorded for Cc1cc(O)c(C)c(C)c1O in this assay.
**Result** 1.0

**Query** Returns: the outcome recorded for C#Cc1ccc(-c2ccccc2F)cc1 in this assay.
**Result** 0.0

**Query** Returns: the outcome recorded for O=C(CCOCCOCCOCCOCCC(=O)Nc1c(I)cc(I)c(C(=O)O)c1I)Nc1c(I)cc(I)c(C(=O)O)c1I in this assay.
**Result** 0.0

**Query** Returns: the outcome recorded for CN1Cc2cc(C(=O)N3CCC(C4CCNCC4)CC3)ccc2NC(CC(=O)O)C1=O (stereo unspecified) in this assay.
**Result** 0.0

**Query** Returns: the outcome recorded for CC(C)C[C@H](NC(=O)CNC(=O)[C@H](Cc1ccc(O)cc1)NC(=O)[C@H](CO)NC(=O)[C@H](Cc1c[nH]c2ccccc12)NC(=O)[C@H](Cc1cnc[nH]1)NC(=O)[C@@H]1CCC(=O)N1)C(=O)N[C@@H](CCCN=C(N)N)C(=O)N1CCC[C@H]1C(=O)NCC(N)=O (stereo in doubt) in this assay.
**Result** 0.0

**Query** Returns: the outcome recorded for CCC(C(=O)OCCN1CCOC(c2ccccc2)C1C)c1ccccc1 (stereo unspecified) in this assay.
**Result** 0.0

**Query** Returns: the outcome recorded for CO/N=C(/C(=O)N[C@@H]1C(=O)N2C(C(=O)[O-])=C(C[n+]3ccn4ncccc43)CS[C@H]12)c1nsc(N)n1 in this assay.
**Result** 0.0

**Query** Returns: the outcome recorded for CCOC(=O)NNc1nncc2ccccc12 in this assay.
**Result** 0.0

**Query** Returns: the outcome recorded for CC(C)(C)C1CCC(CC2=C(O)c3ccccc3C(=O)C2=O)CC1 (stereo unspecified) in this assay.
**Result** 1.0

**Query** Returns: the outcome recorded for CCO[C@H](Cc1ccc(OCCc2ccc(OS(C)(=O)=O)cc2)cc1)C(=O)O in this assay.
**Result** 0.0

**Query** Returns: the outcome recorded for Nc1ccc(O)cc1 in this assay.
**Result** 1.0

**Query** Returns: the outcome recorded for c1ccc2occc2c1 in this assay.
**Result** 0.0

**Query** Returns: the outcome recorded for CCCCCCCCCCCC[N+](C)(C)Cc1ccccc1 in this assay.
**Result** 0.0

**Query** Returns: the outcome recorded for OCCOCCN1CCN(C(c2ccccc2)c2ccc(Cl)cc2)CC1 (stereo unspecified) in this assay.
**Result** 0.0

**Query** Returns: the outcome recorded for CCCCCC(=O)O[C@]1(C(C)=O)CC[C@H]2[C@@H]3CCC4=CC(=O)CC[C@]4(C)[C@H]3CC[C@@]21C in this assay.
**Result** 1.0

**Query** Returns: the outcome recorded for O=C(CCC1CCN(Cc2ccccc2)CC1)c1ccc2c(c1)NCCCC2 in this assay.
**Result** 0.0

**Query** Returns: the outcome recorded for CCOc1ccc(NS(=O)(=O)c2ccc(N)cc2)nn1 in this assay.
**Result** 0.0

**Query** Returns: the outcome recorded for Cc1ccc(C(=O)Oc2ccc(C(O)CNC(C)(C)C)cc2OC(=O)c2ccc(C)cc2)cc1 (stereo unspecified) in this assay.
**Result** 0.0

**Query** Returns: the outcome recorded for C[C@]12CCC(=O)C=C1CC[C@@H]1[C@@H]2[C@@H](O)C[C@@]2(C)[C@H]1CC[C@]2(O)C(=O)COC(=O)CCC(=O)O in this assay.
**Result** 0.0

**Query** Returns: the outcome recorded for Cc1ccc(Cl)c(OCC(O)CNC(C)(C)C)c1 (stereo unspecified) in this assay.
**Result** 0.0

**Query** Returns: the outcome recorded for Cc1nc(C2CCCCC2)c(-c2ccc(S(N)(=O)=O)c(F)c2)o1 in this assay.
**Result** 0.0

**Query** Returns: the outcome recorded for COc1cc2c(cc1OC)C(=O)CC2 in this assay.
**Result** 0.0

**Query** Returns: the outcome recorded for CNC(=O)c1cnn(-c2nc(N)c3ncn([C@@H]4O[C@H](CO)[C@@H](O)[C@H]4O)c3n2)c1 in this assay.
**Result** 0.0

**Query** Returns: the outcome recorded for O=C(O)Cn1cnnn1 in this assay.
**Result** 0.0

**Query** Returns: the outcome recorded for CCc1cccc2c(CCO)c[nH]c12 in this assay.
**Result** 0.0

**Query** Returns: the outcome recorded for Nc1ncnc2nc[nH]c12 in this assay.
**Result** 0.0

**Query** Returns: the outcome recorded for Nc1c[n+](N2CCOCC2)no1 in this assay.
**Result** 0.0

**Query** Returns: the outcome recorded for CCOC(=O)N1CCC(Nc2ccc(Cl)cc2N)CC1 in this assay.
**Result** 1.0

**Query** Returns: the outcome recorded for COC(=O)C1=C(C)NC(C)=C(C(=O)OCCc2ccc(N3CCN(C(c4ccccc4)c4ccccc4)CC3)cc2)C1c1cccc([N+](=O)[O-])c1 (stereo unspecified) in this assay.
**Result** 0.0

**Query** Returns: the outcome recorded for CC(=O)N(CC(=O)N(C)C)c1ccccc1 in this assay.
**Result** 0.0

**Query** Returns: the outcome recorded for CC(CCc1ccc2c(c1)OCO2)NN (stereo unspecified) in this assay.
**Result** 0.0

**Query** Returns: the outcome recorded for Cc1sccc1Br in this assay.
**Result** 0.0

**Query** Returns: the outcome recorded for Cc1c(N)cccc1C(F)(F)F in this assay.
**Result** 0.0
